Molecular target: UniProt Q9NR97
Sequence (Q9NR97 27-1041): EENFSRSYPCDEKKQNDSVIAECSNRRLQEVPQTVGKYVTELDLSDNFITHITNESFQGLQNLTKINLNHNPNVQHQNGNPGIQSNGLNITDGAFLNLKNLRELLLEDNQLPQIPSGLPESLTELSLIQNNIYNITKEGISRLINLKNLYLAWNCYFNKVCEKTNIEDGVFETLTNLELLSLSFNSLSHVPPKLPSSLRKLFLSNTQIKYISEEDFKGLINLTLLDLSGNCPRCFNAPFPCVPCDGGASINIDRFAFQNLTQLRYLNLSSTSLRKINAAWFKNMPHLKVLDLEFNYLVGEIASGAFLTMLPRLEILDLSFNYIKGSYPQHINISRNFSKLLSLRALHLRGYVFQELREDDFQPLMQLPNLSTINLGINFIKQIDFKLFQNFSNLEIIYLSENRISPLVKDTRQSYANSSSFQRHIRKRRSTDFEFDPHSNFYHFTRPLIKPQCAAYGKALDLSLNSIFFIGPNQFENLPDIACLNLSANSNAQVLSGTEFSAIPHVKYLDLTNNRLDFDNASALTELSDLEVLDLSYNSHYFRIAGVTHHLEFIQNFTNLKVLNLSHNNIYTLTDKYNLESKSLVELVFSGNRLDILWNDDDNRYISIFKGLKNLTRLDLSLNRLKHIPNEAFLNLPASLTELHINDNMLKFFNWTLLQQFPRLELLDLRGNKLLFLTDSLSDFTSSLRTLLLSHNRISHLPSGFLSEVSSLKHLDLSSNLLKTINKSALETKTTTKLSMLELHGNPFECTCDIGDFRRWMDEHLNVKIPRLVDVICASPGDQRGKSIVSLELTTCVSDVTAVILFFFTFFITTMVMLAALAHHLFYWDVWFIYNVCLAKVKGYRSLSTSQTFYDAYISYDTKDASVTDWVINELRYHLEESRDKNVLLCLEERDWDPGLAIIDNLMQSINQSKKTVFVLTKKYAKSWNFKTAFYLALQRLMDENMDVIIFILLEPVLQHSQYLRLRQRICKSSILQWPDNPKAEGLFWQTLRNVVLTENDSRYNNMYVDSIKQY
Assay: TLR8 inhibition reporter assay (HEK-Blue cells, SEAP reporter, R848 stimulation)
Conditions: HEK-Blue cells overexpressing human TLR8, SEAP reporter, R848 15.9 μM
pIC50: −log10 of the molar value.
Label Criterion met when pIC50 >= 8; otherwise Criterion not met.

compound: CC(C)c1c(-c2ccnc3[nH]ncc23)[nH]c2ccc(CN3CCCCC3)cc12
group.label: Criterion not met
--
compound: CNCC(=O)NC1(C)CCC(c2ccc3[nH]c(-c4cc(OC)c5ncnn5c4)c(C(C)C)c3c2)CC1 (centres unmarked)
group.label: Criterion not met
--
compound: Cc1cc(-c2[nH]c3ccc(C4CCC5(CC4)NC(=O)NC5=O)cc3c2C(C)C)cc(C)n1 (centres unmarked)
group.label: Criterion not met
--
compound: Cc1cc(-c2[nH]c3ccc([C@H]4C[C@H]4C(=O)NC4CCNCC4)cc3c2C(C)C)ccn1
group.label: Criterion not met
--
compound: Cc1c(-c2[nH]c3ccc(C4CC5CNCC5C4)cc3c2C(C)C)cn2ncnc2c1C (centres unmarked)
group.label: Criterion not met
--
compound: Cc1cc(-c2[nH]c3ccc(C4CCCNC4)cc3c2C(C)C)cc(C)n1 (centres unmarked) [Example 187]
group.label: Criterion met
--
compound: Cc1cc(-c2[nH]c3ccc(C4CCC(N(C)CC(=O)N(C)C)CC4)cc3c2C(C)C)cn2ncnc12 (single isomer, unassigned) [Example 178]
group.label: Criterion met
--
compound: Cc1cc(-c2[nH]c3ccc(C4CCC(N5CCOCC5)CC4)cc3c2C(C)C)cc(C)n1 (centres unmarked) [Example 497]
group.label: Criterion met
--
compound: Cc1c(-c2[nH]c3ccc(C4CC(N)C4)cc3c2C(C)C)cn2ncnc2c1C (centres unmarked) [Example 542]
group.label: Criterion met
--
compound: Cc1c(-c2[nH]c3ccc(C4CCC(N(C)C)CC4)cc3c2C(C)C)cn2cnnc2c1C (centres unmarked) [Example 529]
group.label: Criterion not met
--
compound: Cc1c(-c2[nH]c3ccc(C4CCC(NC5COC5)CC4)cc3c2C(C)C)cn2ncnc2c1C (single isomer, unassigned) [Example 85]
group.label: Criterion met
--
compound: Cc1cc(-c2[nH]c3ccc(C4CN(CC(=O)N(C)C)CCO4)cc3c2C(C)C)cn2ncnc12 (single isomer, unassigned) [Example 308]
group.label: Criterion not met
--
compound: COc1cc(-c2[nH]c3ccc(C4CCCN(C5CCOCC5)C4)cc3c2C(C)C)cn2ncnc12 (centres unmarked)
group.label: Criterion met
--
compound: COc1cc(-c2[nH]c3ccc(C4CCC(NC(=O)CNCC(C)(C)O)CC4)cc3c2C(C)C)cn2ncnc12 (centres unmarked)
group.label: Criterion met
--
compound: CNC1CCC(c2ccc3[nH]c(-c4cc(C)c5ncnn5c4)c(C(C)C)c3c2)CC1 (single isomer, unassigned) [Example 56]
group.label: Criterion met
--
compound: CNCC(=O)NC1CCC(c2ccc3[nH]c(-c4cn5ncnc5c(C)c4C)c(C(C)C)c3c2)CC1 (centres unmarked)
group.label: Criterion met
--
compound: Cc1cc(-c2[nH]c3ccc(C4CCC(NC(=O)CN(C)C)CC4)cc3c2C(C)C)cc(C)n1 (centres unmarked) [Example 120]
group.label: Criterion not met
--
compound: COc1cc(-c2[nH]c3ccc(CCC4CN(C)C4)cc3c2C(C)C)cn2ncnc12
group.label: Criterion not met
--
compound: Cc1c(-c2[nH]c3ccc(C4CN(CC(=O)N(C)C)C4)cc3c2C(C)C)cn(C)c(=O)c1C
group.label: Criterion not met
--
compound: COc1cc(-c2[nH]c3ccc(CCN4CCCC4)cc3c2C(C)C)cn2ncnc12
group.label: Criterion met
--
compound: COc1cc(-c2[nH]c3ccc(C4CCC(N(C)C(C)C)C4)cc3c2C(C)C)cn2ncnc12 (single isomer, unassigned) [Example 275]
group.label: Criterion met
--
compound: CNC1CCC(c2ccc3[nH]c(-c4cc(OC)c5ncnn5c4)c(C(C)C)c3c2)CC1 (single isomer, unassigned) [Example 146]
group.label: Criterion met
--
compound: Cc1c(-c2[nH]c3ccc(C4CC5CN(CC(=O)N(C)C)CC5C4)cc3c2C(C)C)cn2cnnc2c1C (centres unmarked)
group.label: Criterion not met
